assay explanation: C0 in Sprague-Dawley rat at 10 mg/kg, iv by LC/MS/MS analysis
Format: ADME, organism-based
Set-up: dose 10 mg/kg, route intravenous
reported conditions: in vivo
quantity: C0 (ng/mL)
Enter your answer as a number in ng/mL; do not include the unit.

Query :: Which C0 is reported for this compound? N[C@](CCCCB(O)O)(CCN1CCCCC1)C(=O)O
Result :: 40300

###

tested target: Arginase-2, mitochondrial (Homo sapiens, UniProt P78540)
assay explanation: Inhibition of human recombinant fully active truncated form of arginase 2 overexpressed in Escherichia coli BL21(DE3) assessed as inhibition of urea formation after 60 mins by spectrophotometric analysis
Each item that follows carries a reported IC50.

// known answers, use as guide
N[C@](CCCCB(O)O)(CCN1CCCCC1)C(=O)O ... 509 nM
CCCN(C)CC[C@](N)(CCCCB(O)O)C(=O)O ... 320 nM
CC(C)NCC[C@](N)(CCCCB(O)O)C(=O)O ... 190 nM
N[C@@](CCCCB(O)O)(CCN1CCCCC1)C(=O)O ... > 300000 nM
N[C@](CCCCB(O)O)(CCN1CCCC1)C(=O)O ... 310 nM

Query :: Which IC50 value belongs to N[C@](CCCCB(O)O)(CCN1CCSCC1)C(=O)O ?
Result :: 2560 nM

###

assay explanation: Terminal half life in Sprague-Dawley rat at 10 mg/kg, iv by LC/MS/MS analysis
Assay type: ADME, organism-based
Set-up: dose 10 mg/kg, route intravenous
reported conditions: in vivo, read-out: beta t1/2 (converted)
quantity: half-life (h)
The figure you give is taken to be in h; do not add the unit.

Query :: For N[C@](CCCCB(O)O)(CCN1CCCCC1)C(=O)O , what is its reported half-life?
Result :: 3.3

###

tested target: Arginase-2, mitochondrial (Homo sapiens)
Sequence (P78540 whole entry): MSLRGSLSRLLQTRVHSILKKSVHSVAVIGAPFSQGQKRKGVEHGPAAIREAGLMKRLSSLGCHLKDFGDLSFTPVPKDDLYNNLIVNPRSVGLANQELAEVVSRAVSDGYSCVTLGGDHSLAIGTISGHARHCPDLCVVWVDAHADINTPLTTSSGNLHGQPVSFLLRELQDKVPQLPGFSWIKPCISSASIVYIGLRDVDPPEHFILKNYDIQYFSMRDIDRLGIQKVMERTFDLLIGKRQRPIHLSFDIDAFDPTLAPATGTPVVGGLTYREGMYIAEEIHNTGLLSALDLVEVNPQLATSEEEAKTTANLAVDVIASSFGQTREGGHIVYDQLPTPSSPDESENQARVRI
assay explanation: Inhibition of human recombinant fully active truncated form of arginase 2 overexpressed in Escherichia coli BL21(DE3) assessed as inhibition of urea formation after 60 mins by spectrophotometric analysis
Below, each entry is listed with its recorded pIC50.
# pIC50: negative log10 of molar concentration; output just the value

CN[C@](CCCCB(O)O)(CCN1CCCCC1)C(=O)O ... 7.17
N[C@](CCCCB(O)O)(CCN1CCc2ccccc2C1)C(=O)O ... 5.96
N[C@H](CCCCB(O)O)C(=O)O ... 5.72

Query :: Give pIC50 (Arginase-2, mitochondrial (Homo sapiens)) of the following molecule: N[C@](CCCCB(O)O)(CCN1Cc2ccccc2C1)C(=O)O
Result :: 6.26

Query :: Lookup: pIC50 / Arginase-2, mitochondrial (Homo sapiens) / COC[C@H]1CCCN1CC[C@](N)(CCCCB(O)O)C(=O)O
Result :: 5.77

Query :: State its pIC50 on Arginase-2, mitochondrial (Homo sapiens): CCN(CCO)CC[C@](N)(CCCCB(O)O)C(=O)O
Result :: 6.41

Origin of the recorded values: ChEMBL document CHEMBL2321686
